- ASSAY DETAILS: self-splicing fitness, log relative to wild type (ln ratio); higher = more splicing; Tetrahymena group I intron in knt gene, E. coli kanamycin selection, DiMSum; sequences stand for … in CUCUCU…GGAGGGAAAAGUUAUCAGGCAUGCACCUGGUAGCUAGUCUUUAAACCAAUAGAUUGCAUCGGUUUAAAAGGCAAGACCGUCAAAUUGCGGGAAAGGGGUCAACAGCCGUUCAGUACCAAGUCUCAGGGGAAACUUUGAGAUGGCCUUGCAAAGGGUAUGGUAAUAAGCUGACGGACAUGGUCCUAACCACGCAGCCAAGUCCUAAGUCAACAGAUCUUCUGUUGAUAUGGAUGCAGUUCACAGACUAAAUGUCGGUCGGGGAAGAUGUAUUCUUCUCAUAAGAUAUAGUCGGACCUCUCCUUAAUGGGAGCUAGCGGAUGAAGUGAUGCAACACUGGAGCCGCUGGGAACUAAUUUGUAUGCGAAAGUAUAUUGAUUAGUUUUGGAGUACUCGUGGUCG;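 further: selection with 25 µg/mL kanamycin versus none on LB agar overnight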
- EXPERIMENTAL PARAMETERS: 37 °C
Classification field: true = self-splicing fitness (ln) at or over -1; false = self-splicing fitness (ln) under -1.

Input: Does `CCCUAGCAAUAUUACGGGUG` have a reported self-splicing fitness (ln) of at least -1?
Output: true

Input: Also `GGGCAGCAAUAUUACGGUCG` ?
Output: true

Input: What about this sequence? `GGUAAGCAAUAUUACGAUUA`
Output: true

Input: Repeat with `GACAAGCAAUAUUACGGAGU`
Output: true

Input: Another sequence to look at: `CAGUAGCAAUAUUACGAGUC`
Output: false

Input: What do you have for `AUCCAGCAAUAUUACGAGGA` ?
Output: false

Input: Cool, now `GUCAAGCAAUAUUACGCGGU`
Output: false

Input: Another: `AAAGAGCAAUAUUACGGAUG`
Output: false
